Listed here are molecules together with their documented pKi.
Target Desc: Glutamate [NMDA] receptor
Measurement Notes: Binding affinity to NMDA receptor (unknown origin)
Type: protein-complex assay, Homo sapiens
pKi here is simply -log10 of the concentration when that concentration is written in mol/L.

Guide cases for pKi, answers given:
Smiles Representation	Target Desc	pKi
O=c1[nH]c2ccc(/C=C/CP(=O)(O)O)cc2[nH]c1=O	Glutamate [NMDA] receptor	4.16
O=C(O)CNS(=O)(=O)c1ccc2nc(O)c(O)nc2c1	Glutamate [NMDA] receptor	4.28
O=c1[nH]c2ccc(CCP(=O)(O)O)cc2[nH]c1=O	Glutamate [NMDA] receptor	4.25
O=c1[nH]c2ccc(CCCP(=O)(O)O)cc2[nH]c1=O	Glutamate [NMDA] receptor	4.26

Now let's try a different one.
[ask] Could you share which pKi value was measured for `O=C(O)Cc1cccc(-c2ccc3[nH]c(=O)c(=O)[nH]c3c2)c1` ?
[reply] 4.39

----------
Measurement Notes: Ratio CC50 for cytotoxicity against African green monkey Vero cells over IC50 for antitrypanosomal activity against […]
Format: toxicity, cell-based
Condition Description: read-out: Ratio CC50/IC50
Assay Metric: selectivity ratio

[ask] Could you share which selectivity ratio value was measured for `O=C1CN(CCCN2CCCCC2)c2ccc([N+](=O)[O-])cc2N1` ?
[reply] > 10

----------
Measurement Notes: Inhibition of ALR2 (unknown origin)
Design: species or system Homo sapiens
Assay Metric: pIC50
pIC50 here is simply -log10 of the concentration when that concentration is written in mol/L.

Smiles Representation	pIC50
COc1cc(/C=C/c2nc3ccccc3n(CC(=O)O)c2=O)ccc1O	6.38
O=C(O)Cn1c(=O)c(CCc2ccccc2)nc2ccccc21	6.84
O=C(O)Cn1c(=O)c(Oc2ccc(Br)cc2)nc2ccc(F)cc21	7.94

[ask] Could you share which pIC50 value was measured for `O=C(O)Cn1c(=O)c(/C=C/c2ccc(O)c(O)c2)nc2ccc(O)cc21` ?
[reply] 6.99

[ask] Could you share which pIC50 value was measured for `O=c1c(/C=C/c2ccc(O)c(O)c2)nc2ccccc2n1-c1cnn(O)c1` ?
[reply] 6.83

[ask] Could you share which pIC50 value was measured for `O=c1[nH]c2c([N+](=O)[O-])c(Cl)c(Cl)c([N+](=O)[O-])c2nc1Oc1ccccc1` ?
[reply] 5.81

[ask] Could you share which pIC50 value was measured for `O=c1c(/C=C/c2ccc(O)cc2)nc2ccc(F)cc2n1-c1cnn(O)c1` ?
[reply] 6.97

----------
Tested on: Pseudomonas aeruginosa
Measurement Notes: Antibacterial activity against Pseudomonas aeruginosa
Format: functional
Listed here are compounds together with their documented MIC.

Smiles Representation	Assay Metric	Experimental Result
CCCCCCCCCn1c(=O)c2c(-c3ccccc3)nc(-c3ccc[n+](Cc4ccccc4)c3)n2c2ccccc21.[Cl-]	MIC	> 500 µg/mL
CCOC(=O)c1nc2cc(F)ccc2[nH]c1=O	MIC	250 µg/mL
CCCCCCn1c(=O)c2c(-c3ccccc3)nc(-c3ccc[n+](Cc4ccccc4)c3)n2c2ccccc21.[Cl-]	MIC	> 500 µg/mL
O=c1[nH]c2cc3cccnc3c(Cl)c2nc1CBr	MIC	31.2 µg/mL
COc1cnc2ccc(=O)n(C[C@@H](N)[C@H]3CC[C@H](NCc4ccc5c(n4)NC(=O)CO5)CC3)c2c1	MIC	1 µg/mL

Now let's try a different one.
[ask] Could you share which MIC value was measured for `N[C@H](Cn1c(=O)cnc2ccc(F)cc21)[C@H]1CC[C@H](NCc2ncc3c(n2)NC(=O)CO3)CC1` ?
[reply] 0.5 µg/mL

----------
Target Desc: Glutamate [NMDA] receptor
Measurement Notes: Displacement of [3H]CGP-39653 from NMDA receptor (unknown origin)
Assay type: protein-complex assay, Homo sapiens
Listed here are molecules together with their documented IC50.

Molecule	IC50
O=C(CC1CCc2cc(Br)cc3[nH]c(=O)c(=O)n1c23)Nc1ccccc1 (configuration not stated)	> 25 µM

Now let's try a different one.
[ask] Query IC50 on Glutamate [NMDA] receptor for O=C(O)CC1CCc2cc(Br)cc3[nH]c(=O)c(=O)n1c23 (configuration not stated)
[reply] > 30 µM

----------
Tested on: HCT-116
Measurement Notes: Antiproliferative activity against human HCT-116 cells after 72 hrs by MTT assay
Assay type: functional, cell-based
Condition Description: HCT-116, 72 h
Assay Metric: IC50 (µM)
API: value field is a number in µM; no unit string.

Guide cases for IC50, answers given:
Smiles Representation	IC50 [µM]
O=c1[nH]c2ccccc2nc1/C=C/c1ccccn1	0.27
O=c1[nH]c2ccccc2nc1/C=C/c1ccccc1Br	12.3

[ask] Could you share which IC50 value was measured for `Cn1c(=O)c(/C=C/c2ccccn2)nc2ccccc21` ?
[reply] 7.63

----------
Listed here are molecules together with their documented pKi.
Target Desc: Glutamate [NMDA] receptor
Measurement Notes: Displacement of [3H]DCKA from NMDA receptor (unknown origin)
Assay type: protein-complex assay, Homo sapiens
pKi here is simply -log10 of the concentration when that concentration is written in mol/L.

Guide cases for pKi, answers given:
Molecule	Target Desc	Experimental Result
O=C(C[C@@H]1CCc2cc(Br)cc3[nH]c(=O)c(=O)n1c23)Nc1ccccc1	Glutamate [NMDA] receptor	9.02
O=C(O)CC1CCc2cc(Br)cc3[nH]c(=O)c(=O)n1c23 (configuration not stated)	Glutamate [NMDA] receptor	8.00
C[C@H]1Cc2cc(Br)cc3[nH]c(=O)c(=O)n(c23)C1CC(=O)O (some centres not stated)	Glutamate [NMDA] receptor	8.48
O=C(CC1CCc2cc(Cl)cc3[nH]c(=O)c(=O)n1c23)Nc1ccccc1 (configuration not stated)	Glutamate [NMDA] receptor	8.18
O=C(CC1CCc2cc(Br)cc3[nH]c(=O)c(=O)n1c23)Nc1ccccc1 (configuration not stated)	Glutamate [NMDA] receptor	8.59

[ask] Could you share which pKi value was measured for CC[C@H]1Cc2cc(Br)cc3[nH]c(=O)c(=O)n(c23)C1CC(=O)O (some centres not stated) ?
[reply] 8.85

[ask] Could you share which pKi value was measured for C[C@H]1Cc2cc(Cl)cc3[nH]c(=O)c(=O)n(c23)C1CC(=O)O (some centres not stated) ?
[reply] 8.36

[ask] Could you share which pKi value was measured for C[C@H]1Cc2cc(Br)cc3[nH]c(=O)c(=O)n(c23)C1CC(=O)Nc1ccccc1 (some centres not stated) ?
[reply] 8.52

[ask] Could you share which pKi value was measured for C[C@H]1Cc2cc(Cl)cc3[nH]c(=O)c(=O)n(c23)C1CC(=O)Nc1ccccc1 (some centres not stated) ?
[reply] 8.51

[ask] Could you share which pKi value was measured for O=C(O)CC1CCc2cc(Cl)cc3[nH]c(=O)c(=O)n1c23 (configuration not stated) ?
[reply] 8.29

[ask] Could you share which pKi value was measured for `O=C(O)C[C@@H]1CCc2cc(Br)cc3[nH]c(=O)c(=O)n1c23` ?
[reply] 8.64

[ask] Could you share which pKi value was measured for `O=C(O)C[C@H]1CCc2cc(Br)cc3[nH]c(=O)c(=O)n1c23` ?
[reply] 8.02

----------
Measurement Notes: Inhibition of DC-SIGN (unknown origin)
Assay Metric: pIC50
pIC50 here is simply -log10 of the concentration when that concentration is written in mol/L.

[ask] Could you share which pIC50 value was measured for NS(=O)(=O)c1ccc(CCCC2Nc3ccc(C(=O)N4CCN(c5ccncc5)CC4)cc3NC2=O)cc1 (stereo unspecified) ?
[reply] 6.51

----------
Target Desc: Glutamate receptor ionotropic AMPA (Homo sapiens, UniProt P42261+P42262+P42263+P48058)
Measurement Notes: Binding affinity to AMPA receptor (unknown origin)
Type: protein-complex assay
Assay Metric: IC50

Smiles Representation	Assay Metric	Experimental Result
O=C(O)c1cc(-c2ccc3[nH]c(=O)c(=O)[nH]c3c2)ccc1Cl	IC50	24 µM
O=C(O)c1ccc(-c2ccc3[nH]c(=O)c(=O)[nH]c3c2)cc1	IC50	> 100 µM
O=C(O)c1ccccc1/C=C/c1ccc2[nH]c(=O)c(=O)[nH]c2c1	IC50	0.48 µM
O=C(O)CNS(=O)(=O)c1ccc2nc(O)c(O)nc2c1	IC50	> 100 µM
O=c1[nH]c2ccc(CCCP(=O)(O)O)cc2[nH]c1=O	IC50	> 100 µM
O=c1[nH]c2ccc(/C=C/CP(=O)(O)O)cc2[nH]c1=O	IC50	> 100 µM
O=C(O)Cc1cccc(-c2ccc3[nH]c(=O)c(=O)[nH]c3c2)c1	IC50	> 100 µM
O=c1[nH]c2ccc(CCP(=O)(O)O)cc2[nH]c1=O	IC50	> 100 µM
O=c1[nH]c2ccc(-c3cccc(P(=O)(O)O)c3)cc2[nH]c1=O	IC50	> 100 µM

Now let's try a different one.
[ask] Could you share which IC50 value was measured for `Cc1ccc(C(=O)O)cc1-c1ccc2[nH]c(=O)c(=O)[nH]c2c1` ?
[reply] 30 µM
